System: TGFβ1 induced phosphorylated Smad3 (p-Smad3)
measurement-notes: Western blotting of TGFβ1 induced phosphorylated Smad3 in 3T3 cells
Type: cell-based, mouse
condition-parameters: compound 1 mmol/L premixed with TGF-β1 (5 ng/mL) for 2 h, 3T3 cells treated 30 min, FIG. 9
Counter-ions that a name gives are not always drawn.
property: effect on p-Smad3 induced by TGFβ1

Cc1ccccc1NC(=N)Nc1ccccc1C [1,3-Di(o-tolyl)guanidine]: attenuate
CCCCNC(=N)NC(=N)N [buformin hydrochloride, Buformin hydrochloride]: attenuate
Cl.N=C(NN)NN [1,3-Diaminoguanidine monohydrochloride]: no effect
Cl.N=C(N=C(N)N)N1CCOCC1 [moroxydinehydrochloride]: no effect

Now consider the entry below.
Prompt: For the compound Cl.N=C(N)NC(=N)Nc1cccc(Cl)c1Cl , report effect on p-Smad3 induced by TGFβ1.
Completion: no effect

---

measured-target: TGF-β1 (Homo sapiens)
Sequence (P01137 279-390 limits assumed): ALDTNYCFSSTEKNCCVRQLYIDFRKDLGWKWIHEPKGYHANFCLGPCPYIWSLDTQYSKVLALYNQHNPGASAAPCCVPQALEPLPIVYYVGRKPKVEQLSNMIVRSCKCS
measurement-notes: Surface plasmon resonance (SPR)-based assay
condition-parameters: Biacore T200, 25° C., TGF-β1 on CM5 chip, steady-state single site binding model
Where a name gives a salt, the structure may show the parent alone.
property: Kd
For clarity, give the value followed by its unit.

Prompt: Give a short answer stating reported Kd for CN(C)C(=N)N=C(N)N [metformin, metformin hydrochloride] .
Completion: 15.9 µM
